- assay_target: human histamine H3 receptor (Homo sapiens)
- assay_method_text: H3 GTPγS assay (SPA method), histamine H3 in vitro assay
- stated_conditions: GTPγ[35S] binding to membranes of cells expressing human H3; antagonist mode with R-γ-Me-Histamine at EC80 (30 nM); in one embodiment HCl salts tested; read-out: Potency (functional potency as indicated by IC50)
property_name: IC50

>>> result("FC1CCCN(Cc2ccc3c(c2)nc2n3CCN(C3CCC3)CC2)C1 (stereo not drawn) [Compound 161]")
"≤ 10 nM"
>>> result("c1cnc(OCc2ccc3nc4n(c3c2)CCN(C2CCC2)CC4)cn1 [Compound 113]")
"≤ 1000 nM"
>>> result("OCc1ccc2nc3n(c2c1)CCN(C1CCC1)CC3 [Compound 110]")
"≤ 1000 nM"
>>> result("FC1(F)CCCN(Cc2ccc3c(c2)nc2n3CCN(C3CCC3)CC2)C1 [Compound 162]")
"≤ 10 nM"
>>> result("COc1cccc(-c2ccc3c(c2)nc2n3CCN(C3CCC3)CC2)n1 [Compound 137]")
"≤ 100 nM"
>>> result("c1cnn(-c2ccc3c(c2)nc2n3CCN(C3CCC3)CC2)n1 [Compound 151]")
"≤ 100 nM"
>>> result("Cn1ncc2ccc(-c3ccc4c(c3)nc3n4CCN(C4CCC4)CC3)cc21 [Compound 205]")
"≤ 100 nM"
>>> result("Cc1nncn1-c1ccc2c(c1)nc1n2CCN(C2CCC2)CC1 [Compound 157]")
"≤ 100 nM"
>>> result("FC1(F)CCN(c2ccc3c(c2)nc2n3CCN(C3CCC3)CC2)C1 [Compound 182]")
"≤ 100 nM"
>>> result("c1cnc2c(c1)ccn2-c1ccc2c(c1)nc1n2CCN(C2CCC2)CC1 [Compound 70]")
"≤ 100 nM"
>>> result("c1cnc(N2CCN(c3ccc4c(c3)nc3n4CCN(C4CCC4)CC3)CC2)cn1 [Compound 233]")
"≤ 10 nM"
>>> result("O=C(C1CC1)N1CCN(c2ccc3c(c2)nc2n3CCN(C3CCC3)CC2)CC1 [Compound 170]")
"≤ 10 nM"

====

Listed here are compounds together with their documented pIC50.
- assay_target: human histamine H3 receptor (Homo sapiens, UniProt Q9Y5N1)
- Sequence (Q9Y5N1 whole entry): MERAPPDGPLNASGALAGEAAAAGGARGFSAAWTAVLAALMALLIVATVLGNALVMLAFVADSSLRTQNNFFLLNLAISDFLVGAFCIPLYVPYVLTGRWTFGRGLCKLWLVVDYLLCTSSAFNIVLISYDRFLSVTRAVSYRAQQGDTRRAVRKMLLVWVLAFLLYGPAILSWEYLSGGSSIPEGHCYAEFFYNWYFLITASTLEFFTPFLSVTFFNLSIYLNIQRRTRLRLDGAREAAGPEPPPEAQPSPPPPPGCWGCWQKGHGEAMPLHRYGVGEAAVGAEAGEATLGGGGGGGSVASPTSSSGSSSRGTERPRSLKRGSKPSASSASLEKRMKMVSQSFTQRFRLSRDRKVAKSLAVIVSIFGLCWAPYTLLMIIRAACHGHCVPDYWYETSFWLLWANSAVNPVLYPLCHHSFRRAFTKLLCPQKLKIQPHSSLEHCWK
- assay_method_text: H3 GTPγS assay (SPA method), histamine H3 in vitro assay
- stated_conditions: GTPγ[35S] binding to membranes of cells expressing human H3; antagonist mode with R-γ-Me-Histamine at EC80 (30 nM); in one embodiment HCl salts tested; read-out: Potency (functional potency as indicated by IC50)
pIC50: −log10 of the molar value.
property_name: pIC50

>>> result("c1cc2ncc(-c3ccc4c(c3)nc3n4CCN(C4CCC4)CC3)cc2o1")
"≥ 8.00"
>>> result("c1cc2nc(-c3ccc4c(c3)nc3n4CCN(C4CCC4)CC3)cnc2[nH]1")
"≥ 7.00"
>>> result("Cc1nnnn1-c1ccc2c(c1)nc1n2CCN(C2CCC2)CC1")
"≥ 7.00"
>>> result("CC(C1CCC1)N1CCc2nc3cc(Cl)ccc3n2CC1 (stereo not shown)")
"≤ 6.00"
>>> result("FC1(F)CCN(Cc2ccc3c(c2)nc2n3CCN(C3CCC3)CC2)CC1")
"≥ 8.00"
>>> result("CC1CCC(N2CCc3nc4cc(-c5ccc(C#N)cc5)ccc4n3CC2)C1 (racemic)")
"≥ 7.00"
>>> result("OC(c1ccc2c(c1)nc1n2CCN(C2CCC2)CC1)c1cnccn1 (stereo not shown)")
"≥ 7.00"
>>> result("Fc1ccc2c(c1)CCN(Cc1ccc3c(c1)nc1n3CCN(C3CCC3)CC1)C2")
"≥ 8.00"
>>> result("c1cnc2[nH]cc(-c3ccc4c(c3)nc3n4CCN(C4CCC4)CC3)c2c1")
"≥ 8.00"
>>> result("c1ncc(-c2ccc3c(c2)nc2n3CCN(C3CCC3)CC2)cn1")
"≥ 8.00"
